# testDescription: inhibitors of the yeast RAM network, pilot screen, dse1pr::URA3 reporter, 5-FOA selection (AID 869);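 note: 0% = DMSO wells with no growth and 100% = 10 µM 1-NA-PP1 with full growth; RAM network block rescues cells from 5-FOA so hits raise OD615 growth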
# conditionSet: S. cerevisiae dse1pr::URA3 5-FOA growth, OD615, 2 d; at 10 µM; active compounds read high; strain carries analog-sensitive mutant Cbk1 kinase
inhibition for assorted compounds
observationType: inhibition (%)

compound=COc1ccc(S(=O)(=O)Cc2ccc(C(=O)N3CCCC3)o2)cc1 quantityunit=% endpointresult=1.11
compound=CCCCC(=O)Nc1nc2ccc3nc(C)sc3c2s1 quantityunit=% endpointresult=2.27
compound=Cc1ccc(S(=O)(=O)c2nc(-c3cccs3)oc2SCC(N)=O)cc1 quantityunit=% endpointresult=-0.475
compound=COc1ccc(NC(=O)c2oc3ccccc3c2C)c(OC)c1 quantityunit=% endpointresult=0.97
compound=CC(C)c1nnc(NC(=O)CSc2ncn[nH]2)s1 quantityunit=% endpointresult=0.135
compound="Cc1ccc(NC(=O)C2C3C=CC4(CN(Cc5cccnc5)C(=O)C24)O3)cc1F (configuration not stated)" quantityunit=% endpointresult=0.345
compound="Cc1ccnc(N2C(=O)c3ccccc3C2Nc2cccc(C)c2C)c1 (configuration not stated)" quantityunit=% endpointresult=1.32
compound=CCOc1ccc(N(CC(=O)NCc2ccccc2)S(C)(=O)=O)cc1 quantityunit=% endpointresult=0.535
compound="CC(=O)NC(C)(C)C1CC=C(C)/C(=N\\O)C1 (configuration not stated)" quantityunit=% endpointresult=1.36
compound=Nc1cccc(C(=O)Nc2ccc(N)cc2Cl)c1 quantityunit=% endpointresult=2.42
compound="Cc1noc(/C=C/N(C)C)c1S(=O)(=O)N1CCCC(C(=O)NCc2ccco2)C1 (configuration not stated)" quantityunit=% endpointresult=0.86
compound=CC(=O)c1cc(Cc2csc(C(C)=O)c2)cs1 quantityunit=% endpointresult=1.38
compound=Cc1ccc(-c2nn3c(C)nnc3s2)cc1NC(=O)c1ccco1 quantityunit=% endpointresult=2.53
compound=CCOC(=O)c1nnn(-c2nonc2N)c1-c1ccccc1 quantityunit=% endpointresult=2.83
compound=O=C(CSc1nc(-c2ccco2)cc(C(F)(F)F)n1)Nc1ccc(C(=O)N2CCCCC2)cc1 quantityunit=% endpointresult=1.97
compound=CCOC(=O)c1c(NC(=O)OC)sc(C(=O)N(CC)CC)c1C quantityunit=% endpointresult=1.47
compound=CCCC(=O)NCCCc1nc2ccccc2n1CC quantityunit=% endpointresult=-0.16
compound=Cc1cc(C(C)(C)C)oc1C(=O)Nc1ccc(CC(=O)O)cc1 quantityunit=% endpointresult=1.31
compound="CC(CCc1ccccc1)NC(=O)CSc1nnnn1C (configuration not stated)" quantityunit=% endpointresult=1.61
compound=O=C(NCc1cn2ccsc2n1)c1c(F)cccc1Cl quantityunit=% endpointresult=0.93
compound=CCCc1nc2n[nH]c(N)c2c2c1CCC2 quantityunit=% endpointresult=0.825
compound=CC(C)Cn1c(CN2C(=O)c3ccccc3C2=O)nc2ccccc2c1=O quantityunit=% endpointresult=3.54
compound="Cn1c(Cn2c(=O)sc3ccccc32)nnc1SCC(=O)NCC1CCCO1 (configuration not stated)" quantityunit=% endpointresult=0.85
compound="CC1=C(C(=O)OC2CCCCCCC2)C(c2ccc(O)cc2)NC(=O)N1 (configuration not stated)" quantityunit=% endpointresult=1.85
compound=CCCCOC(=O)Nc1ccc(N2CCOCC2)cc1 quantityunit=% endpointresult=1.28
compound="CCCn1c(C(C)NC(=O)c2ccccc2)nc2ccccc21 (configuration not stated)" quantityunit=% endpointresult=2.92
compound="O=C(NCCCN1CCN(c2ccccc2F)CC1)C1CCCN(S(=O)(=O)c2cnc[nH]2)C1 (configuration not stated)" quantityunit=% endpointresult=-0.46
compound=O=C(CSc1nnc(-c2cccnc2)n1Cc1ccco1)c1ccc(Br)cc1 quantityunit=% endpointresult=0.005
compound=CCNc1nc2c(c(=O)n(C)c(=O)n2C)n1Cc1ccc(Cl)cc1 quantityunit=% endpointresult=-0.48
compound=CCCCCn1c(CNC(=O)c2cccs2)nc2ccccc21 quantityunit=% endpointresult=0.42
compound=Cc1cc(C)c(C)c(S(=O)(=O)Nc2ccccc2C(=O)NCCCn2ccnc2)c1C quantityunit=% endpointresult=0.75
compound=COc1ccccc1OCCNC(=O)c1ccc(S(=O)(=O)N(C)C)cc1 quantityunit=% endpointresult=-0.715
compound=Cc1cccc(Cn2c(N(C)Cc3ccccc3)nc3c2c(=O)[nH]c(=O)n3C)c1 quantityunit=% endpointresult=2.08
compound="O=C(NCc1cccs1)C1CCCN(S(=O)(=O)c2cccc3cccnc23)C1 (configuration not stated)" quantityunit=% endpointresult=1.41
compound=CCN1CCN(c2cc(C)c3cc(NC(=O)c4ccc(Br)o4)ccc3n2)CC1 quantityunit=% endpointresult=1.75
compound=Clc1cccc(CSc2nnc([C@@H]3CCCN3)o2)c1 quantityunit=% endpointresult=-0.08
compound=O=S(=O)(NCCc1csc(-c2cccnc2)n1)c1ccc(Cl)s1 quantityunit=% endpointresult=1.76
compound=Cc1cccc(NC(=O)C2CCN(S(=O)(=O)c3cccc4cccnc34)CC2)n1 quantityunit=% endpointresult=1.35
compound=COc1cccc(-c2nnc(NC(=O)c3cccc(F)c3)o2)c1 quantityunit=% endpointresult=1.04
compound=COc1ccc(-c2noc(Cc3ccccc3OC)n2)cc1 quantityunit=% endpointresult=1.83
compound=COC(=O)c1cc(OC)c(OC)cc1N=CC1=C(O)CC(C)(C)CC1=O quantityunit=% endpointresult=1.6
compound="O=C(Nc1nccs1)C1CCCN(S(=O)(=O)c2cccc3cccnc23)C1 (configuration not stated)" quantityunit=% endpointresult=1.6
compound=CC(=O)Nc1ccc(S(=O)(=O)NCCc2cc3c(C)ccc(C)c3[nH]c2=O)cc1 quantityunit=% endpointresult=1.82
compound=CCn1c(C)c2c(C)nnc(C)c2c1C quantityunit=% endpointresult=1.05
compound=O=C(COc1ccccc1)NCCSc1ccccc1 quantityunit=% endpointresult=1.55
compound=CNc1nc(-c2ccc(Cl)cc2)cs1 quantityunit=% endpointresult=0.94
compound="Cc1ccc(-c2nc(CS(=O)(=O)CC(=O)N3CC(C)CC(C)C3)c(C)o2)cc1 (configuration not stated)" quantityunit=% endpointresult=1.93
